# System: 186277-243-T-J2-PDC complex spheroid growth, % test/control;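 further: spheroids exposed to agents for 7 days; 100% = DMSO vehicle control wells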
# Assay text: Anticancer human tumor 186277-243-T-J2-PDC patient-derived colon adenocarcinoma cell line growth inhibition [Asc]
# Stated conditions: second compound 1 µM; first compound 0.03 µM; active compounds read low

Molecule	viability, T/C (%)
CCN1C(C(=O)NC23CCC(C(=O)O)(CC2)CC3)C(c2cccc(Cl)c2F)C2(C(=O)Nc3cc(Cl)ccc32)C12CCCCC2 (stereo not drawn) + Cc1c(S(C)(=O)=O)c(-c2cc(F)cc(N3CCN(c4ccc(NS(=O)(=O)c5ccc(NC(CCN6CCC(C(=O)OCCCP(=O)(O)O)CC6)CSc6ccccc6)c(S(=O)(=O)C(F)(F)F)c5)cc4)CC3)c2)c(-c2ccc(Cl)cc2)n1C(C)C	126
Cc1nc(N2CCC3(CC2)COC(C)C3N)c(CO)nc1Sc1ccnc(N)c1Cl (stereo not drawn) + CNC(C)C(=O)NC1CN(S(=O)(=O)c2cccc(S(=O)(=O)N3CCC4CCC(C(=O)NC(c5ccccc5)c5ccccc5)N4C(=O)C(NC(=O)C(C)NC)C3)c2)CCC2CCC(C(=O)NC(c3ccccc3)c3ccccc3)N2C1=O	110
Cc1nc(N2CCC3(CC2)COC(C)C3N)c(CO)nc1Sc1ccnc(N)c1Cl (stereo not drawn) + Cc1c(S(C)(=O)=O)c(-c2cc(F)cc(N3CCN(c4ccc(NS(=O)(=O)c5ccc(NC(CCN6CCC(C(=O)OCCCP(=O)(O)O)CC6)CSc6ccccc6)c(S(=O)(=O)C(F)(F)F)c5)cc4)CC3)c2)c(-c2ccc(Cl)cc2)n1C(C)C	97.7
